The listing below reports log10 of IC50 for molecules tested on Stromelysin-1 (Homo sapiens).
Sequence (P08254 whole entry): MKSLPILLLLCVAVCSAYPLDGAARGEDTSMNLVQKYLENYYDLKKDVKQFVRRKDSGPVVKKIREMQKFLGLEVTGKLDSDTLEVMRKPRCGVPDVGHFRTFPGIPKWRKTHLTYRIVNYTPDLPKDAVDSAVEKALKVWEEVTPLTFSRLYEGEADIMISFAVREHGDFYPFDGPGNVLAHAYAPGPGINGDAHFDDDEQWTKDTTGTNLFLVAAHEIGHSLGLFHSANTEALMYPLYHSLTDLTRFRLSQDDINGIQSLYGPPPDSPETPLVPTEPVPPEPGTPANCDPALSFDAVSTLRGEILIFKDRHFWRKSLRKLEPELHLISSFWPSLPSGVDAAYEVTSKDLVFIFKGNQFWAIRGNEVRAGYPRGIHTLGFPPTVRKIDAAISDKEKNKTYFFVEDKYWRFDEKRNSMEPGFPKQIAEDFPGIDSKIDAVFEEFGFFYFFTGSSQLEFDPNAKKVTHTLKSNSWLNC
Could you please treat all values as log10 of IC50 in nM?

Below, each entry is followed by its recorded log10 of IC50 result.
COC[C@@H](NC(=O)[C@@H](NC(=O)[C@H](CCCc1ccc(-c2ccccc2)c(C)c1)CC(=O)O)C(C)(C)C)c1ccccc1
1.36
Cc1cccc(-c2ccc(C3=CCN(S(=O)(=O)CC(=O)NO)CC3)cc2C)c1
0.60
CN(CCc1ccc(-c2ccccc2)cc1)S(=O)(=O)CC(=O)NO
2.21
CCOc1cccc(-c2ccc(C3=CCN(S(=O)(=O)CC(=O)NO)CC3)cc2C)c1
0.60
O=C(CS(=O)(=O)N1CC=C(c2ccc(-c3ccccc3)c(Cl)c2)CC1)NO
1.74
O=C(CS(=O)(=O)N1CC(Oc2ccc(-c3ccccc3)cc2)C1)NO
1.92
O=C(CS(=O)(=O)N1CC=C(c2ccc(-c3ccccc3)c(F)c2)CC1)NO
0.48
CN(CCCc1ccc(-c2ccccc2)cc1)S(=O)(=O)CC(=O)NO
2.24
COCc1cccc(-c2ccc(C3=CCN(S(=O)(=O)CC(=O)NO)CC3)cc2C)c1
0.48
CN(Cc1ccc(-c2ccccc2)cc1)S(=O)(=O)CC(=O)NO
2.58

Could I get log10 of IC50 for every one of these entries?
1. Cc1cc(C2=CCN(S(=O)(=O)CC(=O)NO)CC2)ccc1-c1cccc(OC(F)(F)F)c1
2. CNCCOc1cccc(-c2ccc(C3CCN(S(=O)(=O)C(C)(C)C(=O)NO)CC3)cc2C)c1
3. CCc1cc(C2=CCN(S(=O)(=O)CC(=O)NO)CC2)ccc1-c1ccccc1
4. O=C(CS(=O)(=O)N1CCC(c2ccc(Oc3ccccc3)cc2)CC1)NO

Result:
[1.71, -0.52, 2.62, 2.31]

Cited source: ChEMBL document CHEMBL1141365
